Assayed target: BsuCA 1 (Brucella suis)
Construct: gene BS1330_I1823
Sequence (A0A0H3GDA4 1-213): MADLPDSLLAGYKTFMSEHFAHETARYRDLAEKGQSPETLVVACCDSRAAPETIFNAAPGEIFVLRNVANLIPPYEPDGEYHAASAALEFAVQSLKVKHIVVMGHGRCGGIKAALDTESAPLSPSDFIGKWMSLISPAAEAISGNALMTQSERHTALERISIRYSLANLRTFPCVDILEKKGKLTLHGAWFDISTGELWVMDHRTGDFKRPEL
Assay setup: activation constant (not association constant); activator; CO2 substrate; 10 mM Tris pH 8.4, 0.1 M Na2SO4, 25 °C; 15 min pre-incubation
Form field: KA (μM)^a / BsuCA1 ^c (one value per entry).

Molecule: NCc1ccccn1
Scale unit: µM
KA (μM)^a / BsuCA1 ^c: 1.62
--
Molecule: N[C@@H](Cc1ccc(O)c(O)c1)C(=O)O
Scale unit: µM
KA (μM)^a / BsuCA1 ^c: 2.07
--
Molecule: N[C@@H](Cc1cnc[nH]1)C(=O)O
Scale unit: µM
KA (μM)^a / BsuCA1 ^c: 1.76
--
Molecule: CNC[C@H](O)c1ccc(O)c(O)c1
Scale unit: µM
KA (μM)^a / BsuCA1 ^c: 0.70
--
Molecule: N[C@H](CCC(=O)O)C(=O)O
Scale unit: µM
KA (μM)^a / BsuCA1 ^c: 1.39
--
Molecule: Nc1ccc(C[C@H](N)C(=O)O)cc1
Scale unit: µM
KA (μM)^a / BsuCA1 ^c: 1.18
--
Molecule: NCCc1ccc(O)c(O)c1
Scale unit: µM
KA (μM)^a / BsuCA1 ^c: 1.54
--
Molecule: N[C@@H](Cc1c[nH]c2ccccc12)C(=O)O
Scale unit: µM
KA (μM)^a / BsuCA1 ^c: 1.25
--
Molecule: N[C@@H](Cc1ccc(O)cc1)C(=O)O
Scale unit: µM
KA (μM)^a / BsuCA1 ^c: 1.38
--
Molecule: N[C@H](Cc1ccccc1)C(=O)O
Scale unit: µM
KA (μM)^a / BsuCA1 ^c: 1.21
--
Molecule: N[C@H](Cc1ccc(O)cc1)C(=O)O
Scale unit: µM
KA (μM)^a / BsuCA1 ^c: 0.95

Data provenance: paper PMC6691884
